# assay: Pharmacokinetics of RI-CT in male CD-1 mice
# measurement context: mouse, in vivo, sc, 10 mg/kg
measurement name: Cmax (ng/mL)
A number alone suffices; assume ng/mL.

Form field Cmax, entry "CC(C)C[C@@H](NC(=O)[C@@H](Cc1ccc(O)cc1)NC(=O)[C@@H](CC(C)C)NC(=O)[C@H](NC(=O)[C@@H](CS)NC(=O)CNC(=O)[C@@H](CCC(=O)O)NC(=O)[C@@H](CCCNC(=N)N)NC(=O)CNC(=O)CN)C(C)C)C(=O)N[C@H](C)C(=O)N[C@H](CCC(=O)O)C(=O)N[C@@H](C(=O)NCC(=O)NCC(=O)O)C(C)C" : 5120

* * *

# assay: Pharmacokinetics of RI-CT in male CD-1 mice
# measurement context: mouse, in vivo, sc, 10 mg/kg
measurement name: Tmax (min)
Use min as the unit, but write only the number.

Tmax reported for this compound "CC(C)C[C@@H](NC(=O)[C@@H](Cc1ccc(O)cc1)NC(=O)[C@@H](CC(C)C)NC(=O)[C@H](NC(=O)[C@@H](CS)NC(=O)CNC(=O)[C@@H](CCC(=O)O)NC(=O)[C@@H](CCCNC(=N)N)NC(=O)CNC(=O)CN)C(C)C)C(=O)N[C@H](C)C(=O)N[C@H](CCC(=O)O)C(=O)N[C@@H](C(=O)NCC(=O)NCC(=O)O)C(C)C" : 46.2

* * *

# assay: Pharmacokinetics of RI-CT in male CD-1 mice
# measurement context: mouse, in vivo, iv, 10 mg/kg
measurement name: half-life

// sample "CC(C)C[C@@H](NC(=O)[C@@H](Cc1ccc(O)cc1)NC(=O)[C@@H](CC(C)C)NC(=O)[C@H](NC(=O)[C@@H](CS)NC(=O)CNC(=O)[C@@H](CCC(=O)O)NC(=O)[C@@H](CCCNC(=N)N)NC(=O)CNC(=O)CN)C(C)C)C(=O)N[C@H](C)C(=O)N[C@H](CCC(=O)O)C(=O)N[C@@H](C(=O)NCC(=O)NCC(=O)O)C(C)C" , its half-life was 7.46 h

* * *

# assay: Pharmacokinetics of RI-CT in male CD-1 mice
# measurement context: mouse, in vivo, sc, 10 mg/kg
# Protocol: 30 μL of each STD, QC sample and matrix for blanks was added to separate wells of a 96 well plate. 800 μL of water:MeOH (95:5, v/v) was added to the STDs, QCs and blanks. For study samples, 400 μL of water:MeOH (95:5, v/v) was added to each. Mouse whole blood samples were diluted 1:2 with 0.1% formic acid in an aqueous 25 mM EDTA solution when samples were collected; consequently, there was an initial dilution factor of 3. […]
measurement name: bioavailability (%)
Quick reminder: number only, in %, skip the unit.

For reference, reported bioavailability for "CC(C)C[C@@H](NC(=O)[C@@H](Cc1ccc(O)cc1)NC(=O)[C@@H](CC(C)C)NC(=O)[C@H](NC(=O)[C@@H](CS)NC(=O)CNC(=O)[C@@H](CCC(=O)O)NC(=O)[C@@H](CCCNC(=N)N)NC(=O)CNC(=O)CN)C(C)C)C(=O)N[C@H](C)C(=O)N[C@H](CCC(=O)O)C(=O)N[C@@H](C(=O)NCC(=O)NCC(=O)O)C(C)C" stands at 47

* * *

# assay: Pharmacokinetics of RI-CT in male CD-1 mice
# measurement context: mouse, in vivo, sc, 10 mg/kg
measurement name: half-life (h)
Respond numerically; units are h and should not be typed.

Lookup result for CC(C)C[C@@H](NC(=O)[C@@H](Cc1ccc(O)cc1)NC(=O)[C@@H](CC(C)C)NC(=O)[C@H](NC(=O)[C@@H](CS)NC(=O)CNC(=O)[C@@H](CCC(=O)O)NC(=O)[C@@H](CCCNC(=N)N)NC(=O)CNC(=O)CN)C(C)C)C(=O)N[C@H](C)C(=O)N[C@H](CCC(=O)O)C(=O)N[C@@H](C(=O)NCC(=O)NCC(=O)O)C(C)C [RI-CT] ; measured half-life: 6.02

* * *

# assay: Pharmacokinetics of RI-CT in male CD-1 mice
# measurement context: mouse, in vivo, iv, 10 mg/kg
measurement name: clearance (mL/min/kg)
The figure you give is taken to be in mL/min/kg; do not add the unit.

The value of clearance measured for the molecule CC(C)C[C@@H](NC(=O)[C@@H](Cc1ccc(O)cc1)NC(=O)[C@@H](CC(C)C)NC(=O)[C@H](NC(=O)[C@@H](CS)NC(=O)CNC(=O)[C@@H](CCC(=O)O)NC(=O)[C@@H](CCCNC(=N)N)NC(=O)CNC(=O)CN)C(C)C)C(=O)N[C@H](C)C(=O)N[C@H](CCC(=O)O)C(=O)N[C@@H](C(=O)NCC(=O)NCC(=O)O)C(C)C [RI-CT] turned out to be 27
